Attribute: loss in binding relative to WT
# Test target: T1, full-length human p75 neurotrophin receptor fused at the cytoplasmic C-terminus to GFP (human, UniProt P08138 29-427)
# T1 construct: As query against the GFP-tagged library it carried the opposite colour tag (mCherry); kept as one molecule; also called p75^NTR; NGFR; source: HEK293 suspension cells, transiently transfected, on cells; not shown: GFP, C-terminal, kept
# T1 sequence (looked up): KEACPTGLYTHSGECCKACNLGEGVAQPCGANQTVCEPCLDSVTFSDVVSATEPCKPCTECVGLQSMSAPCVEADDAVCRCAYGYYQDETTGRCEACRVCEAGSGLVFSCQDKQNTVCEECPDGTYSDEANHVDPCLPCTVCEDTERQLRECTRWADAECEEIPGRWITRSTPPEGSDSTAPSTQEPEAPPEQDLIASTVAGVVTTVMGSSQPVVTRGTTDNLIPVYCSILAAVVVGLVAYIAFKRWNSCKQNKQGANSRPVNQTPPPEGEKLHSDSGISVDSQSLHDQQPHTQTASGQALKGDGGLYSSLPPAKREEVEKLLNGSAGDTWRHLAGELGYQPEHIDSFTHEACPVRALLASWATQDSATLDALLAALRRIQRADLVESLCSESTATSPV
# Experiment description: flow cytometry on cells; cell-cell conjugates: HEK293F cells expressing 92 B7-1–mCherry point mutants (IgV domain) against HEK293F cells expressing CTLA-4–GFP, CD28-GFP or p75NTR-GFP; percent of WT binding
# Assay conditions: partners not purified

[
  {
    "Binder": "hB7-1 T39A–mCherry (ligand, human, UniProt P33681 35-288, looked up, human B7-1 (CD80), point mutant in the IgV domain; source: HEK293F, transfected, on cells) VIHVAKEVKEVATLSCGHNVSVEELAQTRIYWQKEKKMVLTMMSGDMNIWPEYKNRTIFDITNNLSIVILALRPSDEGTYECVVLKYEKDAFKREHLAEVTLSVKADFPTPSISDFEIPTSNIRRIICSTSGGFPEPHLSWLENGEELNAINTTVSQDPETELYAVSSKLDFNMTTNHSFMCLIKYGHLRVNQTFNWNTTKQEHFPDNLLPSWAITLISVNGIFVICCLTYCFAPRCRERRRNERLRRESVRPV",
    "loss in binding relative to WT": "> 25%"
  },
  {
    "Binder": "hB7-1 S49A–mCherry (ligand, human, UniProt P33681 35-288, looked up, human B7-1 (CD80), point mutant in the IgV domain; source: HEK293F, transfected, on cells) VIHVTKEVKEVATLACGHNVSVEELAQTRIYWQKEKKMVLTMMSGDMNIWPEYKNRTIFDITNNLSIVILALRPSDEGTYECVVLKYEKDAFKREHLAEVTLSVKADFPTPSISDFEIPTSNIRRIICSTSGGFPEPHLSWLENGEELNAINTTVSQDPETELYAVSSKLDFNMTTNHSFMCLIKYGHLRVNQTFNWNTTKQEHFPDNLLPSWAITLISVNGIFVICCLTYCFAPRCRERRRNERLRRESVRPV",
    "loss in binding relative to WT": "> 25%"
  },
  {
    "Binder": "hB7-1 Y65A–mCherry (ligand, human, UniProt P33681 35-288, looked up, human B7-1 (CD80), point mutant in the IgV domain; source: HEK293F, transfected, on cells) VIHVTKEVKEVATLSCGHNVSVEELAQTRIAWQKEKKMVLTMMSGDMNIWPEYKNRTIFDITNNLSIVILALRPSDEGTYECVVLKYEKDAFKREHLAEVTLSVKADFPTPSISDFEIPTSNIRRIICSTSGGFPEPHLSWLENGEELNAINTTVSQDPETELYAVSSKLDFNMTTNHSFMCLIKYGHLRVNQTFNWNTTKQEHFPDNLLPSWAITLISVNGIFVICCLTYCFAPRCRERRRNERLRRESVRPV",
    "loss in binding relative to WT": "> 25%"
  }
]
